target: SARS-CoV-2 receptor-binding domain (SARS-CoV-2, UniProt P0DTC2)
outcome measure: binding result

3521 (antibody, V domains shown) VH: QVQLQESGPGLVKPSETLSLTCTVSGGSISSYHWSWIRQPPGKGLEWIGYIYYSGSTIYNPSLKSRVSISVDTSQNQFSLKLSSVTAADTAVYYCAREMPRGYSGYDYWDLYAFDIWGQGTMVTVSS VL: DIQLTQSPSFLSASVRDRVTITCRASQGISSYLAWYQQKPGKAPKLLIYAASTLQSGVPSRFSGSGSGTEFTLTISSLQPEDFATYYCQQLNNYPHTFGQGTKLEIK ... binds
AB-3571 (antibody, V domains shown) VH: QVQLQESGPGLVKPSETLSLTCAVSGGSISSYHWNWIRQPPGKGLEWIGYIYYSGRTNYNPTLKSRVNISVDTSKNQFSLKLSSVTAADTAVYYCAREMRRGYSGYDYWDLYAFDIWGQGTMVTVSS VL: DIQLTQSPSFLSTSVGDRVTITCRASQDISTYLAWYQQKPGKAPKLLIYAASTLQSGVPSRFSGSGSGTEFTLTISSLQPEDFVTYYCQQLNSYPHTFGQGTKLEIK ... binds
3881 (antibody, V domains shown) VH: QVQLQGSGPGLVKPSETLSLTCTVSGGSISSYYWTWIRQPPGKGLEWIGYIYYSGITTYNPSLKSRITISVDTSKNQFSLKLRSVTAADTAVYYCAREMRRGYSGYDYWDLYPFDIWGQGTMVTVSS VL: DIQLTQSPSFLSASVGDRVTITCRASQGISSYLAWYQQKPGKAPKLLIYSASTLQSGVPSKFSGSGSGTEFTLTISSLQPEDFATYYCQQLNSYPHTFGQGTKLEIK ... binds
